- system.tested: BTK (Homo sapiens, UniProt Q06187)
- Construct: endogenous in cells; host or cells: Ramos (ATCC CRL-1596)
- Sequence (Q06187 whole entry): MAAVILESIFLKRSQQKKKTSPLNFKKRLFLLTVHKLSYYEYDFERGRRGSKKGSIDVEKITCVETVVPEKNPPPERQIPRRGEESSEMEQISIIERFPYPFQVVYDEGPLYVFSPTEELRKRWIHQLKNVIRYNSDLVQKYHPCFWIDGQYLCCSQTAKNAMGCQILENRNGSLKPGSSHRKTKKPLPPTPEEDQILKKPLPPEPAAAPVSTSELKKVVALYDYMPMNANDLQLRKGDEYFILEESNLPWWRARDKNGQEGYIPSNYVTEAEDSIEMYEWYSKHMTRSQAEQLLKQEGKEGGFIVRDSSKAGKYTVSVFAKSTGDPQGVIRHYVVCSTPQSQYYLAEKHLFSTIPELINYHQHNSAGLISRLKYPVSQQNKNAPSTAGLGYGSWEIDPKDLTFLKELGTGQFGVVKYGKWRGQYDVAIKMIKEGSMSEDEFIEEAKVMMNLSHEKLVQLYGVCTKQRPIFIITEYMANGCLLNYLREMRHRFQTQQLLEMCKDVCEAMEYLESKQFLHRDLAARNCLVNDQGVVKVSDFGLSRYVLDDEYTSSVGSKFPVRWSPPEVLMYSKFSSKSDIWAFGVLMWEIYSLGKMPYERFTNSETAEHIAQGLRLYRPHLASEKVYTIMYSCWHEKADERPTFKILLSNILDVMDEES
- method.notes: Cellular BTK HTRF Assay (BTK degradation in Ramos cells)
- Type: cell-based
- condition.info: four hours incubation, 37° C., BTK levels relative to DMSO-treated cells
- Procedure: Ramos (CRL-1596) cells were obtained from American Type Culture Collection and were grown in RPMI-1640 media (ATCC, 30-2001) supplemented with 10% heat-inactivated FBS (Corning Premium Fetal Bovine Serum from Fisher, MT35015CV). Compounds of the present invention were added to 50,000 Ramos cells in round-bottom 96 well plates with a final DMSO concentration of […] and were incubated at 37° C., 5% CO2 for four hours. […]
property.name: DC50

1. Cn1cc(Nc2nc(N3CCC[C@@H](N4CC5(CN(C6CCN(c7ccc8c(c7)C(=O)N(C7CCC(=O)NC7=O)C8=O)CC6)C5)OC4=O)C3)cnc2C(N)=O)cn1 (some centres unmarked) = < 7.5 nM
2. Cc1cc(Nc2nc(N3CCC[C@@H](NC(=O)C4CCN(C5CN(Cc6ccc7c(c6)C(=O)N(C6CCC(=O)NC6=O)C7=O)C5)CC4)C3)cnc2C(N)=O)sn1 (some centres unmarked) = < 7.5 nM
3. CS(=O)(=O)c1ccc(Nc2nc(N3CCC[C@@H](NC(=O)N4CC5(C4)CN(c4ccc6c(c4)C(=O)N(C4CCC(=O)NC4=O)C6=O)C5)C3)cnc2C(N)=O)cc1 (some centres unmarked) = 7.5 to 50 nM
4. CS(=O)(=O)c1ccc(Nc2nc(N3CCC[C@@H](NC(=O)OCCC4CCN(c5ccc6c(c5)C(=O)N(C5CCC(=O)NC5=O)C6=O)CC4)C3)cnc2C(N)=O)cc1 (some centres unmarked) = 7.5 to 50 nM
5. Cc1cc(Nc2nc(N3CCC[C@@H](NC(=O)C4CCN(CC5CCN(c6ccc7c(c6)C(=O)N(C6CCC(=O)NC6=O)C7=O)CC5)C4)C3)cnc2C(N)=O)sn1 (some centres unmarked) = < 7.5 nM

* * *

- system.tested: BTK (Homo sapiens)
- Construct: endogenous in cells; host or cells: Ramos (ATCC CRL-1596)
- method.notes: Cellular BTK HTRF Assay (BTK degradation in Ramos cells)
- Type: cell-based
- condition.info: four hours incubation, 37° C., BTK levels relative to DMSO-treated cells
Catalogue of DC50 readings, one per entry.
property.name: DC50

1. Cc1cc(Nc2nc(N3CCC[C@@H](NC(=O)C4CCN(CC5CN(c6ccc7c(c6)C(=O)N(C6CCC(=O)NC6=O)C7=O)C5)C4)C3)cnc2C(N)=O)sn1 (stereo partly drawn) = < 7.5 nM
2. Cn1cc(Nc2nc(N3CCC[C@@H](N4CCC5(CCN(C6CCN(c7ccc8c(c7)C(=O)N(C7CCC(=O)NC7=O)C8=O)CC6)CC5)C4=O)C3)cnc2C(N)=O)cn1 (stereo partly drawn) = < 7.5 nM
3. Cn1cc(Nc2nc(N3CCC[C@@H](N4CCC5(CCN(CC6CCN(c7ccc8c(c7)C(=O)N(C7CCC(=O)NC7=O)C8=O)CC6)CC5)C4=O)C3)cnc2C(N)=O)cn1 (stereo partly drawn) = < 7.5 nM

Values from patent US12582722B2
